- target.entity: MAPK3 (human) (UniProt P27361)
- Sequence (P27361 whole entry, looked up): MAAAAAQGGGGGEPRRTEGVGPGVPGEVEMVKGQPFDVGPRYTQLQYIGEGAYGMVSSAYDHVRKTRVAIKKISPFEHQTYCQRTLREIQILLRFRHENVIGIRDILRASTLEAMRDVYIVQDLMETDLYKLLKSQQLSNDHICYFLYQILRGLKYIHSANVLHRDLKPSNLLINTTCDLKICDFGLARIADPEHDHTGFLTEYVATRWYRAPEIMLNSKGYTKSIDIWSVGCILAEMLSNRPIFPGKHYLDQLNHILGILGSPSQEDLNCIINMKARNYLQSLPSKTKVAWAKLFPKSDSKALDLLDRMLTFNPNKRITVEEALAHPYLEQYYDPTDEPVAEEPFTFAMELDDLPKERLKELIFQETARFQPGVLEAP
- test: radiometric filter-binding kinase assay, Kinase HotSpot
- experimental.conditions: compound 0.5 µM; ATP 10 µM
readout.type: residual activity (%)
Provide the reading as a plain figure in %.

Exam item: Record "O=c1c2ccccc2[nH]c(=S)n1CCN1CCC(=C(c2ccc(F)cc2)c2ccc(F)cc2)CC1" : what is its residual activity with MAPK3 (human) (UniProt P27361)?
Marked response: 105

Further cases:
Exam item: Record "FC(F)(F)c1ccc(/C=C/c2nc(COc3ccc(CCCCn4ccnn4)cc3)co2)cc1" : what is its residual activity with MAPK3 (human) (UniProt P27361)?
Marked response: 100

Exam item: Subsequent entry: "N#C/C(=C1/Nc2ccccc2S1)c1ccnc(NCCc2cccnc2)n1"
Marked response: 99.4

Exam item: Subsequent entry: "Cc1cc(Nc2nc(-c3ccccc3)nc3ccccc23)n[nH]1"
Marked response: 80.8

Exam item: Subsequent entry: "COc1cc2ncnc(Nc3ccc(O)c(Br)c3)c2cc1OC"
Marked response: 97
